Biological target: Stromelysin-1 (Homo sapiens)
Sequence (P08254 whole entry, the tested form may be a part): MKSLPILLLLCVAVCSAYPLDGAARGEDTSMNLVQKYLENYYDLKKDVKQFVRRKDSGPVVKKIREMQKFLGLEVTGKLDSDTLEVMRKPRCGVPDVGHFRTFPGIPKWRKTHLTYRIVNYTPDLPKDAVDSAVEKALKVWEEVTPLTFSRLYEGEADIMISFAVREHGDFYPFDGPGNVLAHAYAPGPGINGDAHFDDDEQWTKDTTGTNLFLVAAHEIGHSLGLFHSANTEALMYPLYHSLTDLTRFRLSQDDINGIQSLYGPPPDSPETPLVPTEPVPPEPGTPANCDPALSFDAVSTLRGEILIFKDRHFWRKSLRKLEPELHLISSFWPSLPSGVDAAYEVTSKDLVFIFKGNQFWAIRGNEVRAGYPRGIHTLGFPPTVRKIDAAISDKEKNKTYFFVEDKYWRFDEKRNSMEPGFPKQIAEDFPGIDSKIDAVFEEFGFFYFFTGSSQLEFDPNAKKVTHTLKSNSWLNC
Test: Binding affinity to stromelysin-1 catalytic domain
Below, each entry is listed with its recorded Kd.
ENDPOINT: Kd

- N#Cc1ccc(-c2ccc(OCCC(=O)NO)cc2)cc1: 100 nM
- COc1ccc(S(=O)(=O)N[C@@H](C(=O)NO)C(C)C)cc1: 113 nM
- N#Cc1ccc(-c2ccc(OCCCCC(=O)NO)cc2)cc1: 11000 nM
